tested-on: T1, recombinant human RANKL (soluble, Gly136-Asp317, N-terminal 10 His, expressed in CHO cells) (human, UniProt O14788 136-317)
T1 construct: residues between secretion signal and His tag are not described; also called hRANKL; hRNAKL
T1 sequence: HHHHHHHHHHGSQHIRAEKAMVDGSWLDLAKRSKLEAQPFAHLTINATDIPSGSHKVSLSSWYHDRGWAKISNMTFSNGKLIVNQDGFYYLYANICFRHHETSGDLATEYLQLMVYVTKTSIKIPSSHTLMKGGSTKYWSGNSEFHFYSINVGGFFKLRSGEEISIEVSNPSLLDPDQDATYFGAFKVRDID
measurement-protocol: competitive ELISA, RANK-Fc coated, antibody mixed with human RANKL (0.6 µg/ml, equal volume)
value-type: EC50 (µg/mL)
The reply should contain only the number, in µg/mL.

Form: binder = 114-6.6.29 (antibody, V domains shown, Murine monoclonal antibody from hybridoma) VH: DVKLVESGGGLVKPGGSLKLSCAASGFTFSSYTMSWVRQTPEKRLEWVATISSGGSYTYYPDSVKGRFTISRDNAKNTLYLQMSSLKSEDTAMYYCTRDWDYYGTTYVGGYAMDYWGQGTSVTVSS VL: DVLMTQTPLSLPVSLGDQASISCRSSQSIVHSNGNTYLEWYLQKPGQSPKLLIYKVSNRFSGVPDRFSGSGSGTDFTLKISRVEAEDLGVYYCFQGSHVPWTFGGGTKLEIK ; EC50 = 0.39

Form: binder = 114-2.222 (antibody, V domains shown, Murine monoclonal antibody from hybridoma) VH: EVQLQQSGAELVKPGASVKLSCTTSGFNIKATYIHWVQQRPEQGLEWIGRIDPANGNTKYDSKFQGKATITADTSSNTAYLQLSSLTSEDTAVYFCARSLHYYVFFDYWGQGTTLTVSS VL: DIQMTQTTSSLSASLGDRVTISCSASQGISNYLNWYQQKPDGTVKLLIYSTSSLHSGVPSRFSGSGSGTDYSLTISSLEPEDIATYYCQQYSKLPLTFGAGTKLELKR ; EC50 = 0.8

Form: binder = 114-2.402 (antibody, V domains shown, Murine monoclonal antibody from hybridoma) VH: EVQLQQSGTELVKPGASVKLSCTLFGFNIKATYMHWVRQRPEQGLEWIGRIDPPNGNTKYDPKFQDKATIKVDTSSNTAYLQLSSLTSEDTAVYYCAREFNRYDVWLAYWGQGTLVTVSA VL: DIQMTQTTSSLSASLGDRVTISCSASQGVSNYLNWYQQKPDGTVKLLIYSTSSLHSGVPSRFSGSGSGTDYSLTISNLEPEDVATYYCQQYSKLPFTFGSGTKLEIKR ; EC50 = 0.93

Form: binder = 114-7.19.12 (antibody, V domains shown, Murine monoclonal antibody purified from hybridoma supernatant) VH: QVQLQQSGAELASPGASVKLSCKASGYTFTTYWLQWVKQRPGQGLEWIGAIYPGPGNTKYTQKFKDKATLTADKSASTAYMQLNSLTSEDSAVYYCARRGSRRGIAYWGQGTLVTVSA VL: NIVLTQSPASLAVSLGQRATISCRASESVDSYGRSFMHWYQQRPGQPPTLLIYLASNLESGVPVRFSGSGSRTDFTLTIDPVEADDAATYYCQQDNEDPYTFGGGTKLEIK ; EC50 = 0.28

Form: binder = 114-7.38.48 (antibody, V domains shown, Murine monoclonal antibody from hybridoma) VH: DVQLQESGPDLVKPSQSLSLTCTVTGYSITSAYSWHWIRQFPGNKLEWMGYIHFSGVTNYNPSLKSRISITRDASKNQFFLQLSSVTTEDTATYYCATRRETGFTYWGQGTLVTVSA VL: DIVLTQSPATLSVTPGDSVSLSCRASQSISKNLHWYQQKSHESPRLLIKYASQSISGIPSRFSGSGSGTDFTLSINSVETEDFGIYFCQQINSWPLTFGAGTKLELK ; EC50 = 0.93

Cited source: patent EP3085709A1
